Molecular target: T1, human Gro-alpha (human, UniProt P09341 35-107)
T1 sequence (looked up): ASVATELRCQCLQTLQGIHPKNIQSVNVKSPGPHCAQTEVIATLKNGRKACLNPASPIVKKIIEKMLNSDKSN
Test: cell-based or functional assay
Recorded measurements of FLIPR IC50, one per entry
quantity-name: FLIPR IC50

• 1L351.17 (antibody, IgG2b, V domains shown) VH: QAYLQQSGAELVRPGASVKMSCKASGYTFTSYNMHWVKQTPRQGLEWIGAIYPGNGDTSYNQKFKGKATLTVDKSSSTAYMQLSSLTSEDSAVYFCARDLYYFDYWGQGTTLTVSS VL: ENVLTQSPAIMSAFPGEKVTMTCRASSSVSSTYLHWYQQKSGASPKLWIYSTSDLASGVPARFSGSGSGTSYSLTISSVEAEDAATYYCQQFSGYPWTFGGGTKLEIK = 1.92 µg/mL
• 2X907.15 (antibody, IgG1, V domains shown) VH: EVKLVESGGGLVKPGGSLKLSCAASGFTFSDYYMYWVRQSPEKRLEWVATVSDVGSYTYYSGSVRGRFTISRDNAKNNLYLQMSSLQSEDTAIYYCSRDRTLDYWGQGTSVIVTS VL: QIVLTQSPAIMSASPGEKVTITCNASSSVSYMHWFQQKPGTSPKLWIYSTSNLASGVPARFSGSGSGTSYSLTISRMEAEDAATYYCHQRSSFPPTFGGGTKLEIK = > 67 µg/mL
• 1A1.4C6 (antibody, IgG1, V domains shown) VH: EVQLQQSGPELVKPGASVKISCKASGYTFIDYYMNWVKQSQGKSLEWIGDVNPDDGDTTYNQQFKDKATLTVDKSSSTAYMELRSLTSEDSAVYYCARDDRTSGYFDVWGTGTTVTVSS VL: DIQMTQSTSSLSASLGDRVTISCRASQDIRNYLNWFQQKPDGTVKLLIYYTSIVHSRVPSRFSGSGSGTDYSLTINNLDQEDIATYFCQQANTLPWTFGGGTKLETK = 2.4 µg/mL
